# target.desc: human integrin αvβ5 (Homo sapiens, UniProt P06756+P18084)
# Sequence (P06756 31-1048): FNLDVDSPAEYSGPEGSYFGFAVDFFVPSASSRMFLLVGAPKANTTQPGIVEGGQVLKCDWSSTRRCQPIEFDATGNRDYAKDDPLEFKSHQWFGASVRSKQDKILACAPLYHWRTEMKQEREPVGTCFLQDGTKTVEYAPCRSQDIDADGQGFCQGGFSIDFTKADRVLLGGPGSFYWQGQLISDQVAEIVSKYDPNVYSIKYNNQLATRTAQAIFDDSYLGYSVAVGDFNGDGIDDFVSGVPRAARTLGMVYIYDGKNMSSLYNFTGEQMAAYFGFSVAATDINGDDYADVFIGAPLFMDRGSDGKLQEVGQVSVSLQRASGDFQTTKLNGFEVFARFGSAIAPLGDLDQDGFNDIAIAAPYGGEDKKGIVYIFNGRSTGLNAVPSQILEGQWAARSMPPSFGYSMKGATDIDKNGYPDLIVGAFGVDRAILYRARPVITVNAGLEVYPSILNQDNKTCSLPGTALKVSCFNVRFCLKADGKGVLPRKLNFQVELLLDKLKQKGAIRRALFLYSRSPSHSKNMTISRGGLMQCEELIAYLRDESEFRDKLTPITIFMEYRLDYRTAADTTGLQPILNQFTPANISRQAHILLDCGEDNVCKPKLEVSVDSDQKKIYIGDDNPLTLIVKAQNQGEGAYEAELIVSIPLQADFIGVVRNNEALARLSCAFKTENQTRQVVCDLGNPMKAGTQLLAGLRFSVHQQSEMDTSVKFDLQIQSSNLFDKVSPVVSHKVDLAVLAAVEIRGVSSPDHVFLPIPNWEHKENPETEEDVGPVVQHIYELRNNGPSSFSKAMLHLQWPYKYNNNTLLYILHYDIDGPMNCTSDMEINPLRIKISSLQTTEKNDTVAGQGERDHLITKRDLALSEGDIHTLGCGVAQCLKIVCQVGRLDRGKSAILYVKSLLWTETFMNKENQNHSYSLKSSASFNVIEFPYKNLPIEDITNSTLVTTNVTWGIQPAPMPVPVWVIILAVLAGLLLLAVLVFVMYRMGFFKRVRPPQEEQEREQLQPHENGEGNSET
# Sequence (P18084 24-799): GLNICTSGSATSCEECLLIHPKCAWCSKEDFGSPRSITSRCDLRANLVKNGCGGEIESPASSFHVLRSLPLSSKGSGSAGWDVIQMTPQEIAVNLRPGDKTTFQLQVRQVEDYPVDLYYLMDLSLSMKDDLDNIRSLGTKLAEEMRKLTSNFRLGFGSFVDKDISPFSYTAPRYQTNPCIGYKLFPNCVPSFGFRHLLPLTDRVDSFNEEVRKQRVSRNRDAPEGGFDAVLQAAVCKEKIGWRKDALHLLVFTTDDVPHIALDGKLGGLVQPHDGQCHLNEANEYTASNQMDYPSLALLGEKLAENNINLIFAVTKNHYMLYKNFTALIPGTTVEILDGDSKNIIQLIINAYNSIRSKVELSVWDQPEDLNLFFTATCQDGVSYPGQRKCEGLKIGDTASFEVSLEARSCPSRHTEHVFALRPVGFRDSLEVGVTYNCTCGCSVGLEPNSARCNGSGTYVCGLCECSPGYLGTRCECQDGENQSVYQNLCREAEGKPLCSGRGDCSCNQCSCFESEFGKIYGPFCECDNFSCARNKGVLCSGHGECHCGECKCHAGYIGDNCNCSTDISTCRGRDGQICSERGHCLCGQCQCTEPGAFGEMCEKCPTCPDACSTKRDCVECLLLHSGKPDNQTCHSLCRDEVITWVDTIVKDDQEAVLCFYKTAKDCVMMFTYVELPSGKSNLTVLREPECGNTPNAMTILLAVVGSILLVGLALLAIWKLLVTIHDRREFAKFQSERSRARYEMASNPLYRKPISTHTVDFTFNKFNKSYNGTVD
# protocol.summary: Evaluation of integrin binding property (surface plasmon resonance, Biacore 3000, immobilized cyclic peptide)
# measurement.context: SPR, 25° C., HEPES buffer with 5 mM magnesium chloride, integrin 30-1,000 nM; read-out: Performance evaluation: Binding activity (dissociation constant between the cyclic peptide and human integrin αvβ5)
Starred links: 1 amine or outer side, 2 acyl side, 3 side chain; linkers in the order of their positions; H or OH if unused. Positions of bridges follow the written chain, without caps; N, C: chain ends. Non-standard residues stand in square brackets, D forms with d. Residues, ends and D or L forms follow the SMILES beside them. hCys = N[C@@H](CCS)C(=O)O; Dab = NCC[C@H](N)C(=O)O; Dap = NC[C@H](N)C(=O)O; X1 = O=C(C[*:2])[*:1]; X2 = O=C(C[*:1])[*:2]
measurement.kind: Kd

Observe how each entry below is paired with its result.
{"compound": "C[C@H](NC(=O)[C@@H]1CCNC(=O)CSCC[C@H](NC(=O)[C@H](CCCCN)NC(=O)[C@H](CCCCN)NC(=O)[C@@H](N)CCCCN)C(=O)N[C@@H](CCC(=O)O)C(=O)N2CCC[C@H]2C(=O)N[C@@H](CCCNC(=N)N)C(=O)NCC(=O)N[C@@H](CC(=O)O)C(=O)N[C@@H](CC(N)=O)C(=O)N[C@@H](Cc2ccccc2)C(=O)N[C@@H](CCCNC(=N)N)C(=O)N1)C(=O)O [Cyclic peptide 23, KKK-(Hcy)-EPRGDNFR(Dab(acetyl))A] (H-KKK[hCys]EPRGDNFR[Dab]A-OH; linker 4-13 via X2)", "value.observed": "< 50 nM"}
{"compound": "CC(C)[C@@H]1NC(=O)[C@@H](NC(=O)CNC(=O)[C@H](CCCCN)NC(=O)[C@H](CCCCN)NC(=O)[C@@H](N)CCCCN)CCSCC(=O)NCC[C@@H](C(=O)NCC(=O)O)NC(=O)[C@H](C)NC(=O)[C@H](Cc2ccccc2)NC(=O)[C@H](CO)NC(=O)[C@H](CC(=O)O)NC(=O)CNC(=O)[C@H](CCCNC(=N)N)NC(=O)[C@@H]2CCCN2C1=O [Cyclic peptide 99, KKKG-(Hcy)-VPRGDSFA(Dab(acetyl))G] (H-KKKG[hCys]VPRGDSFA[Dab]G-OH; linker 5-14 via X2)", "value.observed": "< 50 nM"}

Q: Given CC[C@H](C)[C@@H]1NC(=O)[C@@H](NC(=O)[C@H](C)NC(=O)[C@H](CCCCN)NC(=O)[C@H](CCCCN)NC(=O)[C@@H](N)CCCCN)CCSCC(=O)NCC[C@@H](C(=O)N[C@@H](C)C(=O)O)NC(=O)[C@H](CCCNC(=N)N)NC(=O)[C@@H]2CCCN2C(=O)[C@H]([C@@H](C)O)NC(=O)[C@H](CC(=O)O)NC(=O)CNC(=O)[C@H](CCCNC(=N)N)NC(=O)[C@@H]2CCCN2C1=O [Cyclic peptide 80, KKKA-(Hcy)-IPRGDTPR(Dab(acetyl))A] (H-KKKA[hCys]IPRGDTPR[Dab]A-OH; linker 5-14 via X2) , state its recorded Kd.
Ans: 50 to 100 nM

Q: Given CC[C@H](C)[C@@H]1NC(=O)[C@@H](NC(=O)[C@H](CCCCN)NC(=O)[C@H](CCCCN)NC(=O)[C@@H](N)CCCCN)CNC(=O)CSCC[C@@H](C(=O)O)NC(=O)[C@H](CCCNC(=N)N)NC(=O)[C@H](Cc2ccccc2)NC(=O)[C@H](CC(N)=O)NC(=O)[C@H](CC(=O)O)NC(=O)CNC(=O)[C@H](CCCNC(=N)N)NC(=O)[C@@H]2CCCN2C1=O [Cyclic peptide 12, KKK(Dap(acetyl))IPRGDNFR-(Hcy)] (H-KKK[Dap]IPRGDNFR[hCys]-OH; linker 4-13 via X1) , state its recorded Kd.
Ans: 50 to 100 nM

* * *

# target.desc: human integrin αvβ5 (Homo sapiens, UniProt P06756+P18084)
# protocol.summary: Evaluation of integrin binding property (surface plasmon resonance, Biacore 3000, immobilized cyclic peptide)
# measurement.context: SPR, 25° C., HEPES buffer with 5 mM magnesium chloride, integrin 30-1,000 nM; read-out: Performance evaluation: Binding activity (dissociation constant between the cyclic peptide and human integrin αvβ5)
Starred links: 1 amine or outer side, 2 acyl side, 3 side chain; linkers in the order of their positions; H or OH if unused. Positions of bridges follow the written chain, without caps; N, C: chain ends. Non-standard residues stand in square brackets, D forms with d. Residues, ends and D or L forms follow the SMILES beside them. hCys = N[C@@H](CCS)C(=O)O; Dab = NCC[C@H](N)C(=O)O; X2 = O=C(C[*:1])[*:2]
measurement.kind: Kd

Q: Given CC[C@H](C)[C@@H]1NC(=O)[C@@H](NC(=O)CNC(=O)[C@H](CCCCN)NC(=O)[C@H](CCCCN)NC(=O)[C@@H](N)CCCCN)CCSCC(=O)NCC[C@@H](C(=O)N[C@@H](C)C(=O)O)NC(=O)[C@H](C)NC(=O)[C@H](Cc2ccccc2)NC(=O)[C@H](CO)NC(=O)[C@H](CC(=O)O)NC(=O)CNC(=O)[C@H](CCCNC(=N)N)NC(=O)[C@@H]2CCCN2C1=O [Cyclic peptide 94, KKKG-(Hcy)-IPRGDSFA(Dab(acetyl))A] (H-KKKG[hCys]IPRGDSFA[Dab]A-OH; linker 5-14 via X2) , state its recorded Kd.
Ans: < 50 nM

* * *

A collection of compounds and their measured Kd
# target.desc: human integrin αvβ5 (Homo sapiens, UniProt P06756+P18084)
# protocol.summary: Evaluation of integrin binding property (surface plasmon resonance, Biacore 3000, immobilized cyclic peptide)
# measurement.context: SPR, 25° C., HEPES buffer with 5 mM magnesium chloride, integrin 30-1,000 nM; read-out: Performance evaluation: Binding activity (dissociation constant between the cyclic peptide and human integrin αvβ5)
Starred links: 1 amine or outer side, 2 acyl side, 3 side chain; linkers in the order of their positions; H or OH if unused. Positions of bridges follow the written chain, without caps; N, C: chain ends. Non-standard residues stand in square brackets, D forms with d. Residues, ends and D or L forms follow the SMILES beside them. hCys = N[C@@H](CCS)C(=O)O; Dab = NCC[C@H](N)C(=O)O; X2 = O=C(C[*:1])[*:2]

{"compound": "CC[C@H](C)[C@@H]1NC(=O)[C@@H](NC(=O)CNC(=O)[C@H](CCCCN)NC(=O)[C@H](CCCCN)NC(=O)[C@@H](N)CCCCN)CCSCC(=O)NCC[C@@H](C(=O)O)NC(=O)[C@H](CCCNC(=N)N)NC(=O)[C@H](Cc2ccccc2)NC(=O)[C@H]([C@@H](C)O)NC(=O)[C@H](CC(=O)O)NC(=O)CNC(=O)[C@H](CCCNC(=N)N)NC(=O)[C@@H]2CCCN2C1=O [Cyclic peptide 59, KKKG-(Hcy)-IPRGDTFR(Dab(acetyl))] (H-KKKG[hCys]IPRGDTFR[Dab]-OH; linker 5-14 via X2)", "Kd": "< 50 nM"}

Below: the item to evaluate.
Q: Given CC(C)[C@@H]1NC(=O)[C@@H](NC(=O)[C@H](C)NC(=O)[C@H](CCCCN)NC(=O)[C@H](CCCCN)NC(=O)[C@@H](N)CCCCN)CCSCC(=O)NCC[C@@H](C(=O)NCC(=O)O)NC(=O)[C@H](C)NC(=O)[C@H](Cc2ccccc2)NC(=O)[C@H](CO)NC(=O)[C@H](CC(=O)O)NC(=O)CNC(=O)[C@H](CCCNC(=N)N)NC(=O)[C@@H]2CCCN2C1=O [Cyclic peptide 97, KKKA-(Hcy)-VPRGDSFA(Dab(acetyl))G] (H-KKKA[hCys]VPRGDSFA[Dab]G-OH; linker 5-14 via X2) , state its recorded Kd.
Ans: < 50 nM

* * *

# target.desc: human integrin αvβ5 (Homo sapiens, UniProt P06756+P18084)
# protocol.summary: Evaluation of integrin binding property (surface plasmon resonance, Biacore 3000, immobilized cyclic peptide)
# measurement.context: SPR, 25° C., HEPES buffer with 5 mM magnesium chloride, integrin 30-1,000 nM; read-out: Performance evaluation: Binding activity (dissociation constant between the cyclic peptide and human integrin αvβ5)
pKd: −log10 of the molar value. Starred links: 1 amine or outer side, 2 acyl side, 3 side chain; linkers in the order of their positions; H or OH if unused. Positions of bridges follow the written chain, without caps; N, C: chain ends. Non-standard residues stand in square brackets, D forms with d. Residues, ends and D or L forms follow the SMILES beside them. hCys = N[C@@H](CCS)C(=O)O; Dab = NCC[C@H](N)C(=O)O; X2 = O=C(C[*:1])[*:2]
A collection of compounds and their measured pKd

{"compound": "CC[C@H](C)[C@@H]1NC(=O)[C@@H](NC(=O)[C@H](CCCCN)NC(=O)[C@H](CCCCN)NC(=O)[C@@H](N)CCCCN)CCSCC(=O)NCC[C@@H](C(=O)O)NC(=O)[C@H](C)NC(=O)[C@H](Cc2ccccc2)NC(=O)[C@H]([C@@H](C)O)NC(=O)[C@H](CC(=O)O)NC(=O)CNC(=O)[C@H](CCCNC(=N)N)NC(=O)[C@@H]2CCCN2C1=O [Cyclic peptide 62, KKK-(Hcy)-IPRGDTFA(Dab(acetyl))] (H-KKK[hCys]IPRGDTFA[Dab]-OH; linker 4-13 via X2)", "value.observed": "> 7.30"}

Below: the item to evaluate.
Q: Given CC[C@H](C)[C@@H]1NC(=O)[C@@H](NC(=O)[C@H](C)NC(=O)[C@H](CCCCN)NC(=O)[C@H](CCCCN)NC(=O)[C@@H](N)CCCCN)CCSCC(=O)NCC[C@@H](C(=O)N[C@@H](C)C(=O)O)NC(=O)[C@H](CCCNC(=N)N)NC(=O)[C@H](Cc2ccccc2)NC(=O)[C@H](C)NC(=O)[C@H](CC(=O)O)NC(=O)CNC(=O)[C@H](CCCNC(=N)N)NC(=O)[C@@H]2CCCN2C1=O [Cyclic peptide 79, KKKA-(Hcy)-IPRGDAFR(Dab(acetyl))A] (H-KKKA[hCys]IPRGDAFR[Dab]A-OH; linker 5-14 via X2) , state its recorded pKd.
Ans: 7.00 to 7.30
